Origin of values: a melting point compilation (Tetko et al.; mined from patent text by program, amines drawn as free bases though some values may be those of a salt)

| compound | melting point |
| --- | --- |
| CCCCCCCCCCCCCCCCCCOC(=O)P(=O)(OC)OC | 41 to 42 °C |
| CCOC(=O)C(c1ccc(Nc2nc(-c3cccc(NC(=O)c4ccc(C(C)(C)C)cc4)c3C)cn(C)c2=O)cc1)N(C)C(C)C (centres undefined) | 119 to 120 °C |
| CC(O)(C(O)CBr)C(O)CBr (centres undefined) | 78 to 80 °C |
| C[C@@H](N1CCN(C(=S)Nc2ccccc2)CC1)[C@](O)(Cn1cncn1)c1ccc(F)cc1F | 106 to 108 °C |
| O=C(Nc1ccc2ccc(-c3ccc(Cl)cc3)nc2n1)c1ccccc1 | 156 to 158 °C |
| CCn1c(=O)ccn(-c2ccc(N)cc2)c1=O | 191 °C |
| CC(C)(C)OC(=O)N1CCN(C2=Nc3ccccc3Sc3ccccc32)CC1 | 127 to 130 °C |
| COc1ccc(C(=O)Nc2c(Cl)cncc2Cl)c2c3ccccc3n(Cc3ccccc3)c12 | 215 to 217 °C |
| COC(=O)N1C(=O)C=CC1=O | 61 to 63 °C |
| Cc1ccccc1-c1ccc(C(=O)N2Cc3ccc(C(=O)NCCc4ccc5c(c4)OCO5)n3Cc3ccccc32)cc1C | 154 to 157 °C |
| CCOC(C)OC1CCC2(C)C3=C(CCC2C1(C)C)C1=CCC(C(C)OCc2ccccc2)C1(C)CC3 (centres undefined) | 138 to 143 °C |
| O=C(O)COc1ccc(SCc2ccc(-c3ccc(C(F)(F)F)cn3)cc2)c2c1CCCO2 | 178 to 179 °C |
| CC(=O)Nc1ncnc2[nH]nc(C#N)c12 | > 360 °C |
| O=c1[nH][nH]c(=O)c2c(O)c3cccc(Cl)c3nc12 | > 390 °C |
| CCOC(=O)c1ccc(NCCC[Si](C)(C)C)cc1 | 64 to 66 °C |
| CN1CCC(Cn2c(=O)[nH]c3ncc(-c4ccc(O)cc4)nc32)CC1 | 292 to 294 °C |
| O=[N+]([O-])c1cc(Cl)ccc1NS(=O)(=O)c1ccc(Cl)cc1 | 122 to 123 °C |
| Oc1ccc(C2(c3ccc(O)c(F)c3)c3ccccc3-c3ccccc32)cc1F | 219 to 221 °C |
| O=c1[nH]c2ccc(C=C3c4ccc(F)cc4CCc4cc(F)ccc43)cc2[nH]1 | 257 °C |
| OC(Cc1ccc(Cl)cc1)(Cn1ccnc1)c1ccc2c(c1)Cc1cc(Cl)ccc1-2 (centres undefined) | 218 °C |
| CC(C)CCCC(C)Cc1nc2c3cc(Br)sc3c3sc(Br)cc3c2nc1CC(C)CCCC(C)C (centres undefined) | 106 to 108 °C |
| O=S(=O)(Oc1ccc(S(=O)(=O)c2ccc(OS(=O)(=O)c3ccccc3)cc2)cc1)c1ccccc1 | 133 to 134 °C |
| CCn1ncc(NCC(O)CO)c(Cl)c1=O (centres undefined) | 120 to 124 °C |
| Cc1[nH]c(=O)ccc1-c1ccc(O)c(N)c1 | 279 to 283 °C |
| Fc1cc(F)cc(Oc2ccc(OCc3ccc(Cl)cc3)c(Cl)c2)c1 | 95.3 °C |
| Cc1ccc(S(=O)(=O)c2ccc3c(c2)[C@@H](N2CCCC2=O)[C@H](O)C(C)(C)O3)cc1 (relative stereo) | 242 to 243 °C |
| O=C1OCCC12Oc1ccc([N+](=O)[O-])cc1C2=O (centres undefined) | 199 to 200 °C |
| N=C(N)Nc1nc(CSCCNc2[nH]ccc2[N+](=O)[O-])cs1 | 196 to 200 °C |
| O=C(O)c1cn(C2CC2)c2c(F)c(N3CC4CC3CN4)c(F)cc2c1=O (centres undefined) | 288 to 290 °C |
